Would you kindly list Ki for each of these molecules?

// returns Ki for N[C@H](C(=O)O)[C@H]1C[C@H]1C(=O)O [L-CCG-IV] with Metabotropic glutamate receptor 2 (Homo sapiens, UniProt Q14416); value = > 10 µM

// returns Ki for "N[C@@H](Cn1oc(=O)[nH]c1=O)C(=O)O" with Metabotropic glutamate receptor 2 (Homo sapiens, UniProt Q14416); value = 0.42 µM

// returns Ki for N[C@@]1(C(=O)O)CC[C@H](C(=O)O)C1 [1S, 3R-ACPD] with Metabotropic glutamate receptor 2 (Homo sapiens, UniProt Q14416); value = > 10 µM

###

Reported Endpoint: pKi
Quick note: pKi values are minus log10 of concentrations in mol/L.

// returns pKi for N[C@H](C(=O)O)[C@H]1C[C@H]1C(=O)O [L-CCG-IV] with UniProt Q13255; value = 5.46
